- ASSAYED_TARGET: pseudo-kinase domain (JH2, amino-acids 536-812) of human Wild Type JAK2 (Homo sapiens (Human), UniProt O60674, F794H/W659A/W777A)
- Sequence (O60674 536-812 W659A/W777A/F794H): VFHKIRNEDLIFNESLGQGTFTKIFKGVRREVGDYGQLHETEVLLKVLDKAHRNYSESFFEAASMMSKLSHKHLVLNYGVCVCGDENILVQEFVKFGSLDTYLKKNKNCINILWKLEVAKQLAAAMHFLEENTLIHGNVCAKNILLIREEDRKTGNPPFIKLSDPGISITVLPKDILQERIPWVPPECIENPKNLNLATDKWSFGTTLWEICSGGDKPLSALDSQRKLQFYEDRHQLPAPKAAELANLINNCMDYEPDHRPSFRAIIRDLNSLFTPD
- TEST_PROTOCOL: JAK2 LanthaScreen JH2-WT Binding Assay
- RECORDED_CONDITIONS: JAK2 JH2-WT 0.145 nM, 50 nM tracer, 1 hour at 25° C.; read-out: JH2 BIND WT IC50
pIC50: −log10 of the molar value.
Overview of recorded pIC50 for various compounds

{"columns": ["COMPOUND", "pIC50"],
 "data": [
  ["Cc1cc(-c2c(C3CCN(S(C)(=O)=O)C3)c3c4cc(-c5cnn(C)c5)[nH]c4ncc3n(C)c2=O)on1 (stereo not shown)", "≥ 7.00"],
  ["Cc1c(-c2ccc([N+](=O)[O-])cc2)c(=O)[nH]c2cnc3[nH]c(-c4ccc(CN5CCC(S(C)(=O)=O)CC5)cc4)cc3c12", "6.00 to 6.30"],
  ["Cc1cc(-c2c(C3CCOCC3)c3c4cc(-c5ccc(CN6CCC(S(C)(=O)=O)CC6)cc5)[nH]c4ncc3n(C)c2=O)on1", "≥ 7.00"],
  ["COCCS(=O)(=O)C1CCN(c2cc3c4c(-c5ccc(C(=O)N(C)C)cc5)c(-c5cnn(C)c5)[nH]c4ncc3n(C)c2=O)CC1", "6.30 to 7.00"],
  ["Cc1cc(-c2c(-c3ccccc3)c3c4cc(-c5cnn(C)c5)[nH]c4ncc3n(C)c2=O)on1", "≥ 7.00"],
  ["Cn1nccc1-c1cc2c(cnc3[nH]c(-c4ccc(CN5CCC(S(C)(=O)=O)CC5)cc4)cc32)[nH]c1=O", "5.00 to 6.00"],
  ["Cc1c(-c2cccc(Cl)c2)c(=O)n(C)c2cnc3[nH]c(-c4ccc(CN5CCC(S(C)(=O)=O)CC5)cc4)cc3c12", "≥ 7.00"]
]}

----------
- ASSAYED_TARGET: pseudo-kinase domain (JH2, amino-acids 536-812) of human V617F mutant JAK2 (Homo sapiens (Human), UniProt O60674, F794H/V617F/W659A/W777A)
- Sequence (O60674 536-812 V617F/W659A/W777A/F794H): as the sequence (O60674 536-812 W659A/W777A/F794H) above, with V82F counted along it
- TEST_PROTOCOL: JAK2 LanthaScreen JH2-V617F Binding Assay
- RECORDED_CONDITIONS: JAK2 JH2-V617F 0.26 nM, 50 nM tracer, 1 hour at 25° C.; read-out: JH2 BIND V617F IC50
- Method: Example C. JAK2 LanthaScreen JH2-V617F Binding Assay JAK2 JH2-V617F binding assay utilizes pseudo-kinase domain (JH2, amino-acids 536-812 with 3 surface mutations W659A, W777A, F794H) of human V617F mutant JAK2 expressed as C-terminal His-Avi-tagged, biotinylated protein in a baculovirus expression system (BPS Bioscience, Catalog #79498). […] After incubation for 1 hour at 25° C., LanthaScreen signals were read on a PHERAstar FS plate reader (BMG LABTECH). […]
pIC50: −log10 of the molar value.

{"columns": ["COMPOUND", "pIC50"],
 "data": [
  ["COCc1ccc(-c2c(-c3cc(C)no3)c(=O)n(C)c3cnc4[nH]c(-c5cnn(C)c5)cc4c23)cc1", "≥ 7.00"],
  ["CS(=O)(=O)C1CCN(Cc2ccc(-c3cc4c(ncc5[nH]c(=O)c(-c6nnn[nH]6)cc54)[nH]3)cc2)CC1", "5.00 to 6.00"],
  ["CN(C)C(=O)c1ccc(-c2c(-c3cnn(C)c3)[nH]c3ncc4c(cc(N5CCC6(CCOC6)CC5)c(=O)n4C)c23)cc1", "6.00 to 6.30"],
  ["COCCS(=O)(=O)C1CCN(c2cc3c4c(-c5ccc(C(=O)N(C)C)cc5)c(-c5cnn(C)c5)[nH]c4ncc3n(C)c2=O)CC1", "6.30 to 7.00"],
  ["Cc1cc(=O)[nH]c2cnc3[nH]c(-c4ccc(CN5CCC(S(C)(=O)=O)CC5)cc4)cc3c12", "5.00 to 6.00"],
  ["COc1c(-c2ccccc2)c(=O)n(C)c2cnc3[nH]c(-c4ccc(CN5CCC(S(C)(=O)=O)CC5)cc4)cc3c12", "6.30 to 7.00"],
  ["Cc1cc(-c2c(C3CCN(S(C)(=O)=O)C3)c3c4cc(-c5cnn(C)c5)[nH]c4ncc3n(C)c2=O)on1 (centres unmarked)", "≥ 7.00"],
  ["Cc1c(-c2ccc(-n3cnnn3)cc2)c(=O)[nH]c2cnc3[nH]c(-c4ccc(CN5CCC(S(C)(=O)=O)CC5)cc4)cc3c12", "5.00 to 6.00"],
  ["COc1ccc(-c2c(-c3cnn(C)c3)[nH]c3ncc4c(cc(C(=O)N(C)C)c(=O)n4C)c23)cc1", "≥ 7.00"],
  ["Cc1cc(-c2c(C3CCOCC3)c3c4cc(-c5ccc(CN6CCC(S(C)(=O)=O)CC6)cc5)[nH]c4ncc3n(C)c2=O)on1", "≥ 7.00"],
  ["Cc1c(-c2ccc(C#N)cc2)c(=O)n(C)c2cnc3[nH]c(-c4ccc(CN5CCC(S(C)(=O)=O)CC5)cc4)cc3c12", "≥ 7.00"],
  ["Cc1cc(-c2c(-c3ccc(-c4cnn(C)c4C)cc3)c3c4cc(-c5cnn(C)c5)[nH]c4ncc3n(C)c2=O)on1", "≥ 7.00"],
  ["CN(C)C(=O)c1ccc(-c2c(-c3cnn(C)c3)[nH]c3ncc4c(cc(N5CCC(S(C)(=O)=O)CC5)c(=O)n4C)c23)cc1", "≥ 7.00"],
  ["Cc1c(-c2cccc(Cl)c2)c(=O)n(C)c2cnc3[nH]c(-c4ccc(CN5CCC(S(C)(=O)=O)CC5)cc4)cc3c12", "≥ 7.00"]
]}

----------
Overview of recorded IC50 for various molecules
- ASSAYED_TARGET: catalytic domain (JH1, amino acids 808-1132) of human JAK2 (Homo sapiens (Human), UniProt O60674)
- Sequence (O60674 808-1132): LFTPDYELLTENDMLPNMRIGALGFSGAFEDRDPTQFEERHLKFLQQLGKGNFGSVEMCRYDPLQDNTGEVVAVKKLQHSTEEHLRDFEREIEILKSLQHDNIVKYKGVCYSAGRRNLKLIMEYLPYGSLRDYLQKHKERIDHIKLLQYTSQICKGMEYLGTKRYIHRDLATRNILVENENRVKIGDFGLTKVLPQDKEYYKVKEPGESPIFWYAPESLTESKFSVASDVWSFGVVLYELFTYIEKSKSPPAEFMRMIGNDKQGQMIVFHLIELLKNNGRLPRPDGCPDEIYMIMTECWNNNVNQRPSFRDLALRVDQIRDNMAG
- TEST_PROTOCOL: JAK2 HTRF Enzyme Activity Assay
- RECORDED_CONDITIONS: JAK2 0.015 nM, ATP (30 μM or 1 mM), 60 minutes at 25° C.
PROPERTY_MEASURED: IC50

{"columns": ["MOLECULE", "TEST_RESULT"],
 "data": [
  ["CN(C)C(=O)c1ccc(-c2c(-c3cnn(C)c3)[nH]c3ncc4c(cc(Nc5cccc(-c6nnn[nH]6)c5)c(=O)n4C)c23)cc1 [Example 34]", "100 to 500 nM"],
  ["Cc1cc(-c2c(C3CCN(S(C)(=O)=O)C3)c3c4cc(-c5cnn(C)c5)[nH]c4ncc3n(C)c2=O)on1 (stereo not drawn) [Example 33]", "100 to 500 nM"],
  ["CS(=O)(=O)C1CCN(Cc2ccc(-c3cc4c(ncc5[nH]c(=O)c(-c6ccccc6)cc54)[nH]3)cc2)CC1 [Example 1]", "> 10000 nM"],
  ["Cc1c(-c2ccc([N+](=O)[O-])cc2)c(=O)[nH]c2cnc3[nH]c(-c4ccc(CN5CCC(S(C)(=O)=O)CC5)cc4)cc3c12 [Example 18]", "1000 to 10000 nM"],
  ["COc1ccc(-c2c(C)c3c4cc(-c5ccc(CN6CCC(S(C)(=O)=O)CC6)cc5)[nH]c4ncc3n(C)c2=O)cc1 [Example 12]", "≤ 100 nM"],
  ["Cc1c(-c2ccc(C(=O)O)cc2)c(=O)[nH]c2cnc3[nH]c(-c4ccc(CN5CCC(S(C)(=O)=O)CC5)cc4)cc3c12 [Example 6]", "> 10000 nM"]
]}

----------
- ASSAYED_TARGET: catalytic domain (JH1, amino acids 826-1132) of human JAK2 (Homo sapiens (Human), UniProt O60674)
- Sequence (O60674 826-1132): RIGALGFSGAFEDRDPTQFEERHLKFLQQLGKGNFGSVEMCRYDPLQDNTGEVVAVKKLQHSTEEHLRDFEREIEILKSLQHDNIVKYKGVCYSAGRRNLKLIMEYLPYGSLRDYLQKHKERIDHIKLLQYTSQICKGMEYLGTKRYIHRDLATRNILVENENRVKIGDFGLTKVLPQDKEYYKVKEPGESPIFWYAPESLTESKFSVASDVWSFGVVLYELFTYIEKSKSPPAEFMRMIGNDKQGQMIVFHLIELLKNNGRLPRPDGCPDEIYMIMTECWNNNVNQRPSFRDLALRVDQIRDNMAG
- TEST_PROTOCOL: JAK2 LanthaScreen JH1 Binding Assay
- RECORDED_CONDITIONS: JAK2 JH1 1.5 nM, 50 nM tracer, 2 hours at 25° C.; read-out: JH1 BIND IC50
pIC50: −log10 of the molar value.

{"columns": ["COMPOUND", "pIC50"],
 "data": [
  ["COc1ccc(-c2c(C)c3c4cc(-c5ccc(CN6CCC(S(C)(=O)=O)CC6)cc5)[nH]c4ncc3n(C)c2=O)cc1 [Example 12]", "6.30 to 7.00"],
  ["CN(C)C(=O)c1ccc(-c2c(-c3cnn(C)c3)[nH]c3ncc4c(cc(NC5CCC(CC#N)CC5)c(=O)n4C)c23)cc1 (centres unmarked) [Example 38]", "6.30 to 7.00"],
  ["Cc1c(-c2ccc(Cl)cc2)c(=O)n(C)c2cnc3[nH]c(-c4ccc(CN5CCC(S(C)(=O)=O)CC5)cc4)cc3c12 [Example 10]", "6.30 to 7.00"],
  ["Cc1cc(-c2c(-c3ccc(NC4CCOCC4)cc3)c3c4cc(-c5cnn(C)c5)[nH]c4ncc3n(C)c2=O)on1 [Example 30]", "6.00 to 6.30"],
  ["Cc1c(-c2ccc(C#N)cc2)c(=O)n(C)c2cnc3[nH]c(-c4ccc(CN5CCC(S(C)(=O)=O)CC5)cc4)cc3c12 [Example 13]", "6.30 to 7.00"],
  ["Cc1cc(-c2c(-c3ccc(-c4cnn(C)c4CO)cc3)c3c4cc(-c5cnn(C)c5)[nH]c4ncc3n(C)c2=O)on1 [Example 32]", "6.30 to 7.00"],
  ["CN(C)C(=O)c1cc2c3c(-c4ccc5c(cnn5C)c4)c(-c4cnn(C)c4)[nH]c3ncc2n(C)c1=O [Example 43]", "5.00 to 6.00"],
  ["Cc1ccncc1-c1cc2c3c(-c4ccc(C(=O)N(C)C)cc4)c(-c4cnn(C)c4)[nH]c3ncc2n(C)c1=O [Example 36]", "≥ 7.00"],
  ["Cc1cc(-c2c(-c3ccc(CNC4CCCOC4)cc3)c3c4cc(-c5cnn(C)c5)[nH]c4ncc3n(C)c2=O)on1 (centres unmarked) [Example 28]", "6.30 to 7.00"],
  ["COCc1ccc(-c2c(-c3cc(C)no3)c(=O)n(C)c3cnc4[nH]c(-c5cnn(C)c5)cc4c23)cc1 [Example 27]", "6.30 to 7.00"],
  ["COc1c(-c2ccccc2)c(=O)n(C)c2cnc3[nH]c(-c4ccc(CN5CCC(S(C)(=O)=O)CC5)cc4)cc3c12 [Example 20]", "≥ 7.00"],
  ["CS(=O)(=O)C1CCN(Cc2ccc(-c3cc4c(ncc5[nH]c(=O)c(-c6ccc(C(=O)O)cc6)cc54)[nH]3)cc2)CC1 [Example 2]", "< 5.00"],
  ["COC1CCC(c2cc(=O)n(C)c3cnc4[nH]c(-c5cnn(C)c5)cc4c23)CC1 (centres unmarked) [Example 24]", "≥ 7.00"],
  ["COc1ccc(-c2c(-c3cnn(C)c3)[nH]c3ncc4c(cc(C(=O)N(C)C)c(=O)n4C)c23)cc1 [Example 42]", "5.00 to 6.00"]
]}
